tested target: Aldo-keto reductase family 1 member C1 (Homo sapiens)
assay procedure: Inhibition of human recombinant AKR1C1 expressed in Escherichia coli assessed as decrease in oxidation of 1-acenaphthenol substrate at 100 uM by spectrophotometric analysis
experimental readout: inhibition

CS(=O)(=O)c1ccc(/C=C(/C(=O)O)c2ccc(F)cc2)cc1    86.1%
CS(=O)(=O)c1ccc(/C(=C\c2ccc(F)cc2)C(=O)O)cc1    21%
CS(=O)(=O)c1ccc(/C(=C\c2cccc(F)c2)C(=O)O)cc1    15.4%

# returns recorded inhibition (system: Aldo-keto reductase family 1 member C1 (Homo sapiens)) for `CS(=O)(=O)c1ccc(/C(=C\c2ccc(Br)cc2)C(=O)O)cc1`
28.7%

---

tested target: Aldo-keto reductase family 1 member C2 (Homo sapiens) (UniProt P52895)
Sequence (P52895 whole entry): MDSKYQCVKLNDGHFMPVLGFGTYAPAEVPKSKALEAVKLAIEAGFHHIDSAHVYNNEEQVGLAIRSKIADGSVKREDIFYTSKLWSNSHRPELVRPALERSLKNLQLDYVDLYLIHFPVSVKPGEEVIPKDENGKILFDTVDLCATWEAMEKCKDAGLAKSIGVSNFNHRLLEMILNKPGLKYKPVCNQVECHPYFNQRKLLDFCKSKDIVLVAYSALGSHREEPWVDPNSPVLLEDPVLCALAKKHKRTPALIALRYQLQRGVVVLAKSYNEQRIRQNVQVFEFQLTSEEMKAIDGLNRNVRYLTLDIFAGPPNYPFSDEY
assay procedure: Inhibition of recombinant AKR1C2 (unknown origin) assessed as decrease in oxidation of 1-acenaphthenol substrate at 100 uM by spectrophotometric analysis
experimental readout: inhibition (%)

Solved entries (count: 4):
CS(=O)(=O)c1ccc(/C(=C\c2ccc(F)cc2)C(=O)O)cc1    9.2
CSc1ccc(-c2ccc(/C=C(/C(=O)O)c3ccc(S(C)(=O)=O)cc3)cc2)cc1    57.4
CSc1ccc(/C=C(/C(=O)O)c2ccc(S(C)(=O)=O)cc2)cc1    14.4
CS(=O)(=O)c1ccc(/C=C(/C(=O)O)c2ccc(F)cc2)cc1    69.7

a: CSc1ccc(/C=C(/C(=O)O)c2cccc(Cl)c2)cc1
b: COc1ccc(/C=C(/C(=O)O)c2cc(OC)c(OC)c(OC)c2)cc1
c: COc1ccc(/C=C(/C(=O)O)c2cc(OC)c(OC)c(OC)c2)cc1OC
d: COc1ccc(/C=C(/C(=O)O)c2cc(OC)c(OC)c(OC)c2)cc1F
Order these by inhibition, descending, and give the full ranking. The labels, placed in the requested order, form the answer.
a, d, b, c
(a: 78.3%, d: 9.9%, b: 4.3%, c: 0.6%)

---

tested target: Aldo-keto reductase family 1 member C1 (Homo sapiens) (UniProt Q04828)
assay procedure: Inhibition of human recombinant AKR1C1 expressed in Escherichia coli assessed as decrease in oxidation of 1-acenaphthenol substrate at 100 uM by spectrophotometric analysis
experimental readout: inhibition (%)

COc1ccc(/C=C(/C(=O)O)c2cc(OC)c(OC)c(OC)c2)cc1OC(C)=O    8

1: CS(=O)(=O)c1ccc(/C(=C\c2ccccc2)C(=O)O)cc1
2: CSc1ccc(/C=C(/C(=O)O)c2ccccc2)cc1
Select the item whose inhibition value is smaller, choosing between 1 and 2 . # respond with the chosen item's label
1
(1: 26.3%, 2: 87%)

---

tested target: Aldo-keto reductase family 1 member C3 (Homo sapiens)
Sequence (P42330 whole entry): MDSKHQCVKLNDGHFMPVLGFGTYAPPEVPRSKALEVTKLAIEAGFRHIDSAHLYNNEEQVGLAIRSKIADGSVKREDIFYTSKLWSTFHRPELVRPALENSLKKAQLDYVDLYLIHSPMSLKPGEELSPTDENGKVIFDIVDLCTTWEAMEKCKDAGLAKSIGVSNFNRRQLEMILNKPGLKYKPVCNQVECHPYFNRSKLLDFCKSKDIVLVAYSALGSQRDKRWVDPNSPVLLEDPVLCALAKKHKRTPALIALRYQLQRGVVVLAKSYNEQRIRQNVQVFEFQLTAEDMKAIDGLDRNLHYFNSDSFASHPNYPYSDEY
assay procedure: Inhibition of recombinant AKR1C3 (unknown origin) assessed as decrease in oxidation of 1-acenaphthenol substrate by spectrophotometric analysis
pIC50: −log10 of the molar value.
experimental readout: pIC50

Solved entries (count: 2):
CS(=O)(=O)c1ccc(/C(=C\c2cccc(Cl)c2)C(=O)O)cc1    4.77
CSc1ccc(/C=C(/C(=O)O)c2ccc(Cl)cc2)cc1    5.08

A: CSc1ccc(/C=C(/C(=O)O)c2ccc(S(C)(=O)=O)cc2)cc1
B: CSc1ccc(/C=C(/C(=O)O)c2cccc(Cl)c2)cc1
Select the item whose pIC50 value is smaller, choosing between A and B . # respond with the chosen item's label
B

---

tested target: Aldo-keto reductase family 1 member C2 (Homo sapiens) (UniProt P52895)
assay procedure: Inhibition of recombinant AKR1C2 (unknown origin) assessed as decrease in oxidation of 1-acenaphthenol substrate at 100 uM by spectrophotometric analysis
Activity calls are given as the source filed them. The calls are words filed in the database; no cut-off is given here.
experimental readout: inhibition

Solved entries (count: 5):
CCc1ccc(/C=C(/C(=O)O)c2ccc(S(C)(=O)=O)cc2)cc1    inactive
COc1ccc(/C=C(/C(=O)O)c2ccc(S(C)(=O)=O)cc2)cc1    inactive
CS(=O)(=O)c1ccc(/C=C(/C(=O)O)c2ccc3c(c2)OCO3)cc1    24.2%
CS(=O)(=O)c1ccc(/C(=C\c2ccc(C(F)(F)F)cc2)C(=O)O)cc1    18.4%
CS(=O)(=O)c1ccc(/C(=C\c2ccc(Cl)cc2)C(=O)O)cc1    24.3%

Fill in the blank: the reported inhibition of `COc1cc(/C(=C\c2cccc(OC(C)=O)c2)C(=O)O)cc(OC)c1OC` is ____.
27%

Fill in the blank: the reported inhibition of `CS(=O)(=O)c1ccc(/C(=C\c2ccc(Br)cc2)C(=O)O)cc1` is ____.
19.2%

Fill in the blank: the reported inhibition of `COc1cc(/C(=C\c2cccc3ccccc23)C(=O)O)cc(OC)c1OC` is ____.
13.8%

Fill in the blank: the reported inhibition of `CC(=O)NS(=O)(=O)c1ccc(/C=C(/C(=O)O)c2ccccc2)cc1` is ____.
87.3%

Fill in the blank: the reported inhibition of `CS(=O)(=O)c1ccc(/C(=C\c2ccc(O)c(O)c2)C(=O)O)cc1` is ____.
27.2%

---

tested target: Aldo-keto reductase family 1 member C2 (Homo sapiens)
assay procedure: Inhibition of recombinant AKR1C2 (unknown origin) assessed as decrease in oxidation of 1-acenaphthenol substrate by spectrophotometric analysis
experimental readout: IC50 (µM)

COc1cc(/C(=C\c2cccc(F)c2)C(=O)O)cc(OC)c1OC    77
CC(=O)NS(=O)(=O)c1ccc(/C=C(/C(=O)O)c2ccccc2)cc1    25.2

I: CS(=O)(=O)c1ccc(/C=C(/C(=O)O)c2ccccc2)cc1
II: CS(=O)(=O)c1ccc(/C(=C\c2cccc(Br)c2)C(=O)O)cc1
III: CSc1ccc(/C=C(/C(=O)O)c2cccc(Cl)c2)cc1
IV: CC(=O)O[C@]1(C(C)=O)CC[C@H]2[C@@H]3C[C@H](C)C4=CC(=O)CC[C@]4(C)[C@H]3CC[C@@]21C [MEDROXYPROGESTERONE ACETATE]
Order these by IC50, descending, and give the full ranking. The labels, placed in the requested order, form the answer.
II, I, III, IV
(II: 74.3 µM, I: 34.4 µM, III: 20.8 µM, IV: 4.1 µM)

A: COc1ccc(/C=C(/C(=O)O)c2cccc3ccccc23)cc1OC
B: CS(=O)(=O)c1ccc(/C=C(/C(=O)O)c2ccc(F)cc2)cc1
Of the two listed items, which has the higher IC50? First: A Second: B # respond with the chosen item's label
B
(B: 44.6 µM, A: 24.2 µM)

---

tested target: Aldo-keto reductase family 1 member C1 (Homo sapiens, UniProt Q04828)
assay procedure: Inhibition of human recombinant AKR1C1 expressed in Escherichia coli assessed as decrease in oxidation of 1-acenaphthenol substrate by spectrophotometric analysis
experimental readout: IC50 (µM)

Solved entries (count: 3):
CS(=O)(=O)c1ccc(/C=C(/C(=O)O)c2cccc(Cl)c2)cc1    19.3
CC(=O)O[C@]1(C(C)=O)CC[C@H]2[C@@H]3C[C@H](C)C4=CC(=O)CC[C@]4(C)[C@H]3CC[C@@]21C [MEDROXYPROGESTERONE ACETATE]    1.8
CSc1ccc(/C=C(/C(=O)O)c2cccc(Cl)c2)cc1    19.1

A: CSc1ccc(/C=C(/C(=O)O)c2ccccc2)cc1
B: O=C(O)/C(=C/c1ccccc1)c1ccccc1
Select the item whose IC50 value is smaller, choosing between A and B . # respond with the chosen item's label
B

---

tested target: Aldo-keto reductase family 1 member C1 (Homo sapiens) (UniProt Q04828)
assay procedure: Inhibition of human recombinant AKR1C1 expressed in Escherichia coli assessed as decrease in oxidation of 1-acenaphthenol substrate at 100 uM by spectrophotometric analysis
Active and inactive are the calls of the source. No cut-off for these calls is given here.
experimental readout: inhibition

COc1ccc(/C=C(/C(=O)O)c2cc(OC)c(OC)c(OC)c2)cc1OC    6.1%
COc1ccc(/C=C(/C(=O)O)c2cc(OC)c(OC)c(OC)c2)cc1    15.1%
COc1ccc(/C=C(/C(=O)O)c2cccc3ccccc23)cc1OC    29.4%
CSc1ccc(/C=C(/C(=O)O)c2cccc(Cl)c2)cc1    81.7%
COc1cc(/C=C(/C(=O)O)c2ccc(S(C)(=O)=O)cc2)cc(OC)c1OC    inactive

# returns recorded inhibition (system: Aldo-keto reductase family 1 member C1 (Homo sapiens) (UniProt Q04828)) for `CS(=O)(=O)c1ccc(/C(=C\c2cccc(Br)c2)C(=O)O)cc1`
34.8%

# returns recorded inhibition (system: Aldo-keto reductase family 1 member C1 (Homo sapiens) (UniProt Q04828)) for `CS(=O)(=O)c1ccc(/C=C(/C(=O)O)c2ccc(Cl)cc2)cc1`
89.6%

---

tested target: Aldo-keto reductase family 1 member C1 (Homo sapiens, UniProt Q04828)
Sequence (Q04828 whole entry): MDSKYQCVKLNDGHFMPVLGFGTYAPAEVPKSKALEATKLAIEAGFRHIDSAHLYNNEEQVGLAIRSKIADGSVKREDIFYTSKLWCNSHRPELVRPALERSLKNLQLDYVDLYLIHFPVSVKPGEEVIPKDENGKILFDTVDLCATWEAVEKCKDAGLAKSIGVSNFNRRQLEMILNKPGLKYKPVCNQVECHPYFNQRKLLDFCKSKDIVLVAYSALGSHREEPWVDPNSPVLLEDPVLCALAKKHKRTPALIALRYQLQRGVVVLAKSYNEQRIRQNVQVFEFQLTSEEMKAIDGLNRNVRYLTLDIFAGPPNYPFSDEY
assay procedure: Inhibition of human recombinant AKR1C1 expressed in Escherichia coli assessed as decrease in oxidation of 1-acenaphthenol substrate by spectrophotometric analysis
experimental readout: IC50 (µM)

Solved entries (count: 2):
CS(=O)(=O)c1ccc(/C=C(/C(=O)O)c2ccc(F)cc2)cc1    23.3
CC(=O)NS(=O)(=O)c1ccc(/C=C(/C(=O)O)c2ccccc2)cc1    8.7

a: CSc1ccc(/C=C(/C(=O)O)c2ccc(Cl)cc2)cc1
b: CS(=O)(=O)c1ccc(/C=C(/C(=O)O)c2ccccc2)cc1
c: CS(=O)(=O)c1ccc(/C=C(/C(=O)O)c2ccc(Cl)cc2)cc1
Put the compounds in ascending order of IC50. The labels, placed in the requested order, form the answer.
a, c, b

Numbers sourced from ChEMBL document CHEMBL2331309.
